target: Mushroom tyrosinase (Agaricus bisporus, UniProt O42713+Q00024+C7FF04+C7FF05); assay: Inhibition of mushroom tyrosinase using L-tyrosine as substrate incubated for 30 mins by microplate reader assay; assay type: protein assay
The molecules listed here are annotated with their IC50.

input_smiles	IC50
COc1ccc(CNC2=NC(=O)/C(=C/c3ccc(O)c(O)c3)S2)cc1	> 200 µM
COc1ccc(CNC2=NC(=O)/C(=C/c3cc(OC)c(OC)c(OC)c3)S2)cc1	> 200 µM
COc1ccc(CNC2=NC(=O)/C(=C/c3ccc(OC)c(OC)c3)S2)cc1	> 200 µM
COc1ccc(CNC2=NC(=O)/C(=C/c3ccc(F)cc3F)S2)cc1	> 200 µM
CCOc1cc(/C=C2\SC(NCc3ccc(OC)cc3)=NC2=O)ccc1O	174.2 µM
COc1ccc(CNC2=NC(=O)/C(=C/c3ccc(O)cc3O)S2)cc1	2.1 µM
COc1ccc(CNC2=NC(=O)/C(=C/c3ccc(O)c(OC)c3)S2)cc1	29.4 µM
COc1ccc(/C=C2\SC(NCc3ccc(OC)cc3)=NC2=O)cc1	> 200 µM
COc1ccc(CNC2=NC(=O)/C(=C/c3ccc(OC)cc3OC)S2)cc1	> 200 µM
COc1ccc(CNC2=NC(=O)/C(=C/c3ccc(F)c(F)c3)S2)cc1	> 200 µM

###

target: Mushroom tyrosinase (Agaricus bisporus, UniProt O42713+Q00024+C7FF04+C7FF05); assay: Inhibition of mushroom tyrosinase using L-tyrosine as substrate incubated for 30 mins by microplate reader assay; assay type: protein assay
Measured IC50 values are reported for all entries that follow.

input_smiles	IC50
COc1ccc(CNC2=NC(=O)/C(=C/c3ccc(OC)c(O)c3)S2)cc1	107.9 µM
COc1ccc(CNC2=NC(=O)/C(=C/c3cc(C(C)(C)C)c(O)c(C(C)(C)C)c3)S2)cc1	> 200 µM
COc1ccc(CNC2=NC(=O)/C(=C/c3cc(OC)c(O)c(OC)c3)S2)cc1	> 200 µM
COc1ccc(CNC2=NC(=O)/C(=C/c3ccc(O)cc3)S2)cc1	> 200 µM

###

experiment: Antioxidant activity assessed as ROS scavenging activity at 40 uM incubated for 30 mins under dark condition in presence of SIN-1 by microplate reader assay; format: functional
Active and inactive are the calls of the source. The calls are words filed in the database; no cut-off is given here.
Outcome codes: t for active, f for inactive

input_smiles	class
COc1ccc(/C=C2\SC(NCc3ccc(OC)cc3)=NC2=O)cc1	t
COc1ccc(CNC2=NC(=O)/C(=C/c3ccc(O)c(OC)c3)S2)cc1	f
COc1ccc(CNC2=NC(=O)/C(=C/c3ccc(O)cc3O)S2)cc1	f
COc1ccc(CNC2=NC(=O)/C(=C/c3ccc(F)c(F)c3)S2)cc1	f
COc1ccc(CNC2=NC(=O)/C(=C/c3cc(OC)c(OC)c(OC)c3)S2)cc1	t

###

test: Antioxidant activity assessed as ROS scavenging activity at 40 uM incubated for 30 mins under dark condition in presence of SIN-1 by microplate reader assay; type: functional
The source made the active and inactive calls. No cut-off for these calls is given here.
Outcome codes: Yes for active, No for inactive

molecule	class
COc1ccc(CNC2=NC(=O)/C(=C/c3ccc(O)c(O)c3)S2)cc1	Yes
COc1ccc(CNC2=NC(=O)/C(=C/c3ccc(OC)c(O)c3)S2)cc1	No
COc1ccc(CNC2=NC(=O)/C(=C/c3cc(C(C)(C)C)c(O)c(C(C)(C)C)c3)S2)cc1	No
COc1ccc(CNC2=NC(=O)/C(=C/c3cc(OC)c(O)c(OC)c3)S2)cc1	No
Cc1c(C)c2c(c(C)c1O)CCC(C)(C(=O)O)O2 (centres undefined)	Yes
COc1ccc(CNC2=NC(=O)/C(=C/c3ccc(OC)c(OC)c3)S2)cc1	Yes
CCOc1cc(/C=C2\SC(NCc3ccc(OC)cc3)=NC2=O)ccc1O	No
COc1ccc(CNC2=NC(=O)/C(=C/c3ccc(OC)cc3OC)S2)cc1	Yes
COc1ccc(CNC2=NC(=O)/C(=C/c3ccc(F)cc3F)S2)cc1	No

###

Recorded measurements of IC50, one per entry
molecular target: Mushroom tyrosinase (Agaricus bisporus, UniProt O42713+Q00024+C7FF04+C7FF05); test: Inhibition of mushroom tyrosinase using L-DOPA as substrate incubated for 30 mins by microplate reader assay; assay type: protein assay
quantity_name: IC50

input_smiles	obs_value
COc1ccc(CNC2=NC(=O)/C(=C/c3ccc(O)c(OC)c3)S2)cc1	78.1 µM
COc1ccc(CNC2=NC(=O)/C(=C/c3cc(OC)c(OC)c(OC)c3)S2)cc1	> 200 µM
COc1ccc(CNC2=NC(=O)/C(=C/c3ccc(OC)c(OC)c3)S2)cc1	136 µM
COc1ccc(CNC2=NC(=O)/C(=C/c3ccc(O)c(O)c3)S2)cc1	105.1 µM
CCOc1cc(/C=C2\SC(NCc3ccc(OC)cc3)=NC2=O)ccc1O	98.5 µM
COc1ccc(CNC2=NC(=O)/C(=C/c3ccc(F)c(F)c3)S2)cc1	79.5 µM
COc1ccc(CNC2=NC(=O)/C(=C/c3ccc(O)cc3)S2)cc1	29.2 µM
COc1ccc(CNC2=NC(=O)/C(=C/c3ccc(OC)cc3OC)S2)cc1	146.4 µM
COc1ccc(/C=C2\SC(NCc3ccc(OC)cc3)=NC2=O)cc1	> 200 µM
COc1ccc(CNC2=NC(=O)/C(=C/c3cc(OC)c(O)c(OC)c3)S2)cc1	> 200 µM
COc1ccc(CNC2=NC(=O)/C(=C/c3ccc(O)cc3O)S2)cc1	0.4 µM
COc1ccc(CNC2=NC(=O)/C(=C/c3ccc(OC)c(O)c3)S2)cc1	13 µM
COc1ccc(CNC2=NC(=O)/C(=C/c3cc(C(C)(C)C)c(O)c(C(C)(C)C)c3)S2)cc1	100.9 µM
COc1ccc(CNC2=NC(=O)/C(=C/c3ccc(F)cc3F)S2)cc1	179.2 µM
